The origin of these recorded values is ChEMBL document CHEMBL4196176.

experiment: Drug uptake in Hartley Duncan guinea pig lungs at 100 mg/kg, po measured at 2 hrs; format: ADME, organism-based, Cavia porcellus; conditions: lung, read-out: Drug uptake
measured-attribute: concentration at 2 h (ng/g)
Give just the numeric value; ng/g need not be written.

Task item: Entry Cc1onc(C(=O)O)c1-c1cccc(-c2cc(Cl)c(O)c(Cl)c2)c1 : reported concentration at 2 h = ?
Reply: 623
